molecular target: Ste12 (UniProt P13574); assay: PBM E-score (8-mer binding enrichment) (E-score (-0.5 to 0.5)); higher = stronger / more preferred TF binding; conditions: protein concentration: 200 nM; construct: GST-DNA-binding domain
Sequence (P13574 whole entry, the tested form may be a part): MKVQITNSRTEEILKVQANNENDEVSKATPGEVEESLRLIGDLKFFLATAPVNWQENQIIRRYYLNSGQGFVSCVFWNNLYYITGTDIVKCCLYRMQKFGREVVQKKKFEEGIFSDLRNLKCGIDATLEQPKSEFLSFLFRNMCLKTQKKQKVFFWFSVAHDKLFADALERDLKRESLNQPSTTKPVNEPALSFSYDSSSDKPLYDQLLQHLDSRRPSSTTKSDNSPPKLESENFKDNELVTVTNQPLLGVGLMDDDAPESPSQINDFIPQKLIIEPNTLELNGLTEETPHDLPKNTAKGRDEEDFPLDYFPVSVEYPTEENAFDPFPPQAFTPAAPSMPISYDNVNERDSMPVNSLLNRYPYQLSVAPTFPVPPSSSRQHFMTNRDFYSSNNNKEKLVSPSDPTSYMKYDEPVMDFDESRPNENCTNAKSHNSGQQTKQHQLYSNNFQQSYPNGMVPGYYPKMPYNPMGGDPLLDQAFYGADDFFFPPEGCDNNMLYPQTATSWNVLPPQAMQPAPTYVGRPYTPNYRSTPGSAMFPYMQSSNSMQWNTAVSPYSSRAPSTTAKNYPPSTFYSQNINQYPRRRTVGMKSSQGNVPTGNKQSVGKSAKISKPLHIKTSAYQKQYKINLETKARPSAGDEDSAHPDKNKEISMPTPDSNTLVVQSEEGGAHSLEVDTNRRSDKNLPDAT
The full ranking holds about 33,000 sequences; the median of “E-score (-0.5 to 0.5)” is about -0.01, and the highest 2% start at about 0.26. This excerpt belongs to a sample that is enriched for the highest values.
Measurement type: PBM E-score
Numbers only.

# example entries with known answers
TAACGCGA: 0.0877
GGGGTGAA: 0.0185
GCTCAGCA: -0.0833
AAACACGA: 0.129
CTATGAAG: 0.0327
AAAATTAT: 0.337

Please state PBM E-score for every sequence in the list that follows.
1. ATACACAG
2. GAAACGCA
3. AGATGGCT
4. AAAATTTT
5. AAACACAA

Result:
[-0.054, 0.323, -0.0505, 0.311, 0.291]
